Data credit: PubChem BioAssay (NCI)

Overview of reported GI50 across a group of compounds:
Test system: OVCAR-8 ovarian
Assay: NCI tumour cell line growth inhibition, 48 h

{"Compound": "CCCN(CCC)c1ccc(C=O)c(Cl)c1", "GI50": "28.4 µM"}
{"Compound": "CN(Cc1ccc(F)cc1)c1ccc(CO)c(Cl)c1", "GI50": "20.7 µM"}
{"Compound": "Cn1c(=O)n(C)c2cc(CNCCNc3ccnc4cc(Cl)ccc34)ccc21", "GI50": "38.2 µM"}
{"Compound": "NC(=O)c1cccnc1", "GI50": "> 100 µM"}
{"Compound": "COc1ccc(C(=O)c2sc3nc(-c4ccccc4OC)ccc3c2N)cc1OC", "GI50": "4.02 µM"}
{"Compound": "c1ccc(-c2nc3n(c2-c2ccc4c(c2)OCO4)CCC3)nc1", "GI50": "6.34 µM"}
{"Compound": "Clc1ccc(/C=C/c2ccc3ccccc3n2)cc1", "GI50": "1.06 µM"}
{"Compound": "O=C(CC1(O)C(=O)Nc2ccc(F)cc21)c1ccc(C(=O)NCC2CCC3(CC2)OOC2(CCCCC2)OO3)cc1 (stereo not given)", "GI50": "6.3 µM"}
{"Compound": "C=C1C(=O)O[C@H]2[C@H]1CC/C(COC(=O)N[C@H]1C[C@H](O[C@H]3C[C@](O)(C(=O)CO)Cc4c(O)c5c(c(O)c43)C(=O)c3c(OC)cccc3C5=O)O[C@@H](C)[C@H]1O)=C\\CC[C@@]1(C)O[C@@H]21", "GI50": "6.99 µM"}
{"Compound": "COc1ccc(-c2nc(-c3nc4cc(Cl)c(F)cc4[nH]3)c3ccccn23)cc1", "GI50": "3.45 µM"}

---

Tested on: NCI-H23 lung
Test: NCI tumour cell line growth inhibition, 48 h
Metric: GI50

{"Compound": "C=C1C(=O)O[C@H]2[C@H]1CC/C(Cn1cc(-c3ccc(N)cc3)nn1)=C\\CC[C@@]1(C)O[C@@H]21", "Assay system": "NCI-H23 lung", "Result": "2.49 µM"}
{"Compound": "CC(NC(=O)Cc1ccc(C(F)(F)P(=O)(OCc2ccc([N+](=O)[O-])o2)N(C)CCCCCl)cc1)c1ccc(OCC2CCCCC2)c(C(N)=O)c1 (stereo not drawn)", "Assay system": "NCI-H23 lung", "Result": "4.11 µM"}
{"Compound": "Nc1c(C(=O)c2cccc(C#CCN3CCCCC3)c2)cnn1-c1ccc(F)cc1", "Assay system": "NCI-H23 lung", "Result": "> 22.5 µM"}
{"Compound": "O=C(CC1(O)C(=O)Nc2ccc(F)cc21)c1ccc(C(=O)NCC2CCC3(CC2)OOC2(CCCCC2)OO3)cc1 (stereo not drawn)", "Assay system": "NCI-H23 lung", "Result": "3.62 µM"}
{"Compound": "O=C1c2cccnc2-c2nc(-c3cccnc3)cc3c2c1nc1ccccc13", "Assay system": "NCI-H23 lung", "Result": "3.7 µM"}
{"Compound": "CC(C)(C)[Si](C)(C)OC1[C@@H](CNC(N)=O)O[C@@H](n2cnc3c(NC(=O)Nc4ccccc4)ncnc32)[C@H]1O[Si](C)(C)C(C)(C)C (stereo partly drawn)", "Assay system": "NCI-H23 lung", "Result": "1.9 µM"}
{"Compound": "O=C(Nc1cccc2[nH]c(C(F)(F)F)nc12)c1cc(Cl)ccc1Cl", "Assay system": "NCI-H23 lung", "Result": "2.81 µM"}
{"Compound": "FC(F)(F)c1ccc(-c2nn3ncccc3c2-c2ccnc(Nc3ccc4c(c3)OCCO4)n2)cc1", "Assay system": "NCI-H23 lung", "Result": "14.7 µM"}
